Item-by-item account of HERG, PDSP raw data, mean
tgt: hERG channels (Homo sapiens)
Construct: purchased NIMH Psychoactive Drug Screening Program (PDSP)
Sequence (Q12809 whole entry): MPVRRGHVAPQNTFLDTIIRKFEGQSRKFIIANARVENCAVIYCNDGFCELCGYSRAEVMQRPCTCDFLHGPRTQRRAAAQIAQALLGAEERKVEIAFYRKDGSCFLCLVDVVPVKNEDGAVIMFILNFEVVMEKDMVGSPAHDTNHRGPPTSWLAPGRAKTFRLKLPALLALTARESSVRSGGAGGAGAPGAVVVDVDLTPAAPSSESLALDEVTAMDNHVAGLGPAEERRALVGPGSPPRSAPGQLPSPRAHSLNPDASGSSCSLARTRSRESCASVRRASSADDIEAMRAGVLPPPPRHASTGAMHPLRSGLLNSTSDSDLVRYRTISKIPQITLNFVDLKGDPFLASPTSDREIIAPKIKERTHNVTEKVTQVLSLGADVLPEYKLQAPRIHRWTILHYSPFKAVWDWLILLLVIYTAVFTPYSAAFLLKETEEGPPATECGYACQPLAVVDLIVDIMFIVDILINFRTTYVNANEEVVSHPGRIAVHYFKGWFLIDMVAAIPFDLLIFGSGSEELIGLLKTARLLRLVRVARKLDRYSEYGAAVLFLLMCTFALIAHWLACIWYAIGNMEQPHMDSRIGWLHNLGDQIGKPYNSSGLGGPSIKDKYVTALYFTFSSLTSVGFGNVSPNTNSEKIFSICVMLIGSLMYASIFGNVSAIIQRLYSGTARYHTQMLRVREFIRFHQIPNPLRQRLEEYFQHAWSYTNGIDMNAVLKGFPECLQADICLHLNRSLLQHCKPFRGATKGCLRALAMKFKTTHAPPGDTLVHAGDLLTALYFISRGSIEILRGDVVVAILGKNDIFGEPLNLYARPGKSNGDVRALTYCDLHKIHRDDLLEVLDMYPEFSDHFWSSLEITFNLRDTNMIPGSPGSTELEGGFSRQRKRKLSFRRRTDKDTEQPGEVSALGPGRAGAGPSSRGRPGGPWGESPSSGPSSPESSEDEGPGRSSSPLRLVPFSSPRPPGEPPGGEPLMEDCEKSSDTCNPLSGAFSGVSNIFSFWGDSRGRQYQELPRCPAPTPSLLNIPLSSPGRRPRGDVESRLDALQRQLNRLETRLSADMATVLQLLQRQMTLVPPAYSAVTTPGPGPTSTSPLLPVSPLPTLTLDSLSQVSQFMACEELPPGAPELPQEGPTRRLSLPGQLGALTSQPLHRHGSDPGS
assay.text: PDSP radioligand binding at hERG
details: primary binding, 10,000 nM; last figure of the line = mean of the 4 before it
Please give a number only; it is taken to be in %.

- CC(C)c1noc(-c2ncn3c2[C@@H](C)N=C(c2ccccc2F)c2cc(Cl)ccc2-3)n1: 20.73

Continue with the compound presented below.
input: Name the recorded HERG, PDSP raw data, mean for `C[C@H]1N=C(c2ccccc2F)c2cc(Cl)ccc2-n2cnc(-c3nc(C4CC4)no3)c21` .
output: 9.37

###

tgt: Alpha2B (Homo sapiens, UniProt P18089)
Construct: purchased NIMH Psychoactive Drug Screening Program (PDSP)
Sequence (P18089 whole entry): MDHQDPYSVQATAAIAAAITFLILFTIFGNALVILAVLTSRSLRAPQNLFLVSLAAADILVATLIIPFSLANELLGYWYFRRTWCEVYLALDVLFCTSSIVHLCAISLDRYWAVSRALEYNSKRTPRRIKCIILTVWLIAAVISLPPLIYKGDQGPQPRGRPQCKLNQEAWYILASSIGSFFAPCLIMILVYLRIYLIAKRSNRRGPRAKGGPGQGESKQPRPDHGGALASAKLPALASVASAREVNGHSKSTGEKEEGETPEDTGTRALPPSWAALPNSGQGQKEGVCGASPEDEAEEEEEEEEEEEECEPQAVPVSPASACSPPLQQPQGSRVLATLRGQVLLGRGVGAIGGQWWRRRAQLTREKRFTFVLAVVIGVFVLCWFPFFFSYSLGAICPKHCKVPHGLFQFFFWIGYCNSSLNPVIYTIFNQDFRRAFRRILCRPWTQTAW
assay.text: PDSP primary binding Alpha2B
details: 1.5 h; primary binding, 10,000 nM; last figure of the line = mean of the 4 before it; read-out: Alpha2B, PDSP raw data, mean
Protocol: To determine if any off-target receptor-binding effects are present, all the novel ligands were sent to the National Institute of Mental Health (NIMH), Psychoactive Drug Screening Program (PDSP). […] The hERG-binding was also determined. […] The binding of a ligand to a receptor, ion channel, or transporter was determined in the […] of 10 µM of the appropriate reference compound. […] Radioactivity was then counted on a Microbeta counter. […]
Item-by-item account of inhibition at 10 µM
Answer format: value, then unit.

Examples with their reported inhibition at 10 µM follow.
* C#Cc1ccc2c(c1)C(c1ccccn1)=N[C@@H](C)c1c(C(=O)N(C)C)ncn1-2 [Compound 31] | -0.93%
* C#Cc1ccc2c(c1)C(c1ccccc1Cl)=N[C@H](C)c1c(C(=O)NC)ncn1-2 [Compound 21] | -2.45%
* C#Cc1ccc2c(c1)C(c1ccccc1F)=N[C@H](C)c1c(C(=S)N(C)C)ncn1-2 [Compound 33] | 68.9%

Continue with the compound presented below.
input: Name the recorded inhibition at 10 µM for C[C@H]1N=C(c2ccccc2F)c2cc(-c3ccccc3)ccc2-n2cnc(C(=O)N(C)C)c21 [Compound 5] .
output: 68.9%

###

tgt: M3D (Homo sapiens, UniProt P20309, A239G/Y149C)
Construct: purchased NIMH Psychoactive Drug Screening Program (PDSP)
Sequence (P20309 whole entry Y149C/A239G): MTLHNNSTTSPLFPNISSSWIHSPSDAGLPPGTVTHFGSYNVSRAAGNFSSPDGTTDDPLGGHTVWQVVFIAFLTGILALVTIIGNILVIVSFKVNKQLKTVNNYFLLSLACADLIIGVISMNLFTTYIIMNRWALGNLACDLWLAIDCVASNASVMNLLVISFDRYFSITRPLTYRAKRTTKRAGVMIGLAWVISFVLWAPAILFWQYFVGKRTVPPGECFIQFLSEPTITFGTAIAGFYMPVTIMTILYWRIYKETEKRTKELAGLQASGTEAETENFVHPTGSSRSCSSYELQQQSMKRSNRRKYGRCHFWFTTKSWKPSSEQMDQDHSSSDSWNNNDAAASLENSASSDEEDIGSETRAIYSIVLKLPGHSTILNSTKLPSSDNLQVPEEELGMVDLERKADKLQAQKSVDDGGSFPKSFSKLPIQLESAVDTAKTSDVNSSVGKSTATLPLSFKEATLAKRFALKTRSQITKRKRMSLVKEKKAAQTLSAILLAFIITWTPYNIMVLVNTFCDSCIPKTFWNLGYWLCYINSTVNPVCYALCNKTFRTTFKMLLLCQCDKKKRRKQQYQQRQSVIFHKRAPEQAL
assay.text: PDSP primary binding M3D
details: primary binding, 10,000 nM; last figure of the line = mean of the 4 before it; read-out: M3D, PDSP raw data, mean
value.kind: inhibition at 10 µM (%)
Please give a number only; it is taken to be in %.

Examples with their reported inhibition at 10 µM follow.
• CCc1noc(-c2ncn3c2[C@@H](C)N=C(c2ccccc2F)c2cc(C4CC4)ccc2-3)n1 = 9.97
• CCc1noc(-c2ncn3c2[C@@H](C)N=C(c2ccccc2F)c2cc(Cl)ccc2-3)n1 = -2.01
• C#Cc1ccc2c(c1)C(c1ccccc1F)=N[C@H](C)c1c(C(=S)N(C)C)ncn1-2 = 4.84

input: Record lookup: for M3D (Homo sapiens, UniProt P20309, A239G/Y149C), what inhibition at 10 µM belongs to `C#Cc1ccc2c(c1)C(c1ccccc1Cl)=N[C@H](C)c1c(C(=O)N(C)CC)ncn1-2` ?
output: 6.78

###

tgt: NET (Homo sapiens, UniProt P23975)
Construct: purchased NIMH Psychoactive Drug Screening Program (PDSP)
Sequence (P23975 whole entry): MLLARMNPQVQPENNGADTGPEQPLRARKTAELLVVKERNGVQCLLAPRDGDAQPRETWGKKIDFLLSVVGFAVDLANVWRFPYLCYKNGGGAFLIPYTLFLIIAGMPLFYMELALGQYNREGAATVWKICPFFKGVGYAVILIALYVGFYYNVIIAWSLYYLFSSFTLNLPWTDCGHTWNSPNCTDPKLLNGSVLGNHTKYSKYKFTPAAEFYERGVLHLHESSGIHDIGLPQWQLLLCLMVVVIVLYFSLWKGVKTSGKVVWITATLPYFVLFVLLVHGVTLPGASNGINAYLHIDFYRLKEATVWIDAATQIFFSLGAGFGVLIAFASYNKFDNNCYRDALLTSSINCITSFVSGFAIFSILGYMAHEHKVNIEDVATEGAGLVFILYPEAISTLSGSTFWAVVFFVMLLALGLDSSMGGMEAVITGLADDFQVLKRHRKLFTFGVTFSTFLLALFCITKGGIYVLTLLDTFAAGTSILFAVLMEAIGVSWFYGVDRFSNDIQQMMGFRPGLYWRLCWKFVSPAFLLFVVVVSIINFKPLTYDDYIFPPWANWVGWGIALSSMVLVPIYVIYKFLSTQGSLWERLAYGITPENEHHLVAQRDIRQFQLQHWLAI
assay.text: PDSP primary binding NET
details: primary binding, 10,000 nM; last figure of the line = mean of the 4 before it; read-out: NET, PDSP raw data, mean
Item-by-item account of inhibition at 10 µM
Please give a number only; it is taken to be in %.

Examples with their reported inhibition at 10 µM follow.
• CCc1noc(-c2ncn3c2[C@@H](C)N=C(c2ccccc2F)c2cc(C4CC4)ccc2-3)n1 = 24.3
• C#Cc1ccc2c(c1)C(c1ccccc1Cl)=N[C@H](C)c1c(C(=O)N(C)CC)ncn1-2 = -2.63
• CC(C)c1noc(-c2ncn3c2[C@@H](C)N=C(c2ccccc2F)c2cc(Cl)ccc2-3)n1 = 9.04
• CCc1noc(-c2ncn3c2[C@@H](C)N=C(c2ccccc2F)c2cc(Cl)ccc2-3)n1 = -2.36
• CCc1noc(-c2ncn3c2CN=C(c2ccccc2F)c2cc(C4CC4)ccc2-3)n1 = 4.9

input: Name the recorded inhibition at 10 µM for `CCc1noc(-c2ncn3c2[C@@H](C)N=C(c2ccccc2F)c2cc(-c4ccccc4)ccc2-3)n1` .
output: 10.2

input: Name the recorded inhibition at 10 µM for `C[C@H]1N=C(c2ccccc2F)c2cc(-c3ccccc3)ccc2-n2cnc(C(=O)N(C)C)c21` .
output: -6

input: Name the recorded inhibition at 10 µM for `C#Cc1ccc2c(c1)C(c1ccccn1)=N[C@@H](C)c1c(C(=O)NC)ncn1-2` .
output: 2.62

input: Name the recorded inhibition at 10 µM for `C#Cc1ccc2c(c1)C(c1ccccc1F)=N[C@H](C)c1c(C(=S)N(C)C)ncn1-2` .
output: -6

input: Name the recorded inhibition at 10 µM for `C#Cc1ccc2c(c1)C(c1ccccc1Cl)=N[C@H](C)c1c(C(=O)NC)ncn1-2` .
output: -2.45

input: Name the recorded inhibition at 10 µM for `C[C@H]1N=C(c2ccccc2F)c2cc(Cl)ccc2-n2cnc(-c3nc(C4CC4)no3)c21` .
output: -0.22

input: Name the recorded inhibition at 10 µM for `C#Cc1ccc2c(c1)C(c1ccccn1)=N[C@@H](C)c1c(C(=O)N(C)C)ncn1-2` .
output: 10.2

###

tgt: D3 (Homo sapiens, UniProt P35462)
Construct: purchased NIMH Psychoactive Drug Screening Program (PDSP)
Sequence (P35462 whole entry): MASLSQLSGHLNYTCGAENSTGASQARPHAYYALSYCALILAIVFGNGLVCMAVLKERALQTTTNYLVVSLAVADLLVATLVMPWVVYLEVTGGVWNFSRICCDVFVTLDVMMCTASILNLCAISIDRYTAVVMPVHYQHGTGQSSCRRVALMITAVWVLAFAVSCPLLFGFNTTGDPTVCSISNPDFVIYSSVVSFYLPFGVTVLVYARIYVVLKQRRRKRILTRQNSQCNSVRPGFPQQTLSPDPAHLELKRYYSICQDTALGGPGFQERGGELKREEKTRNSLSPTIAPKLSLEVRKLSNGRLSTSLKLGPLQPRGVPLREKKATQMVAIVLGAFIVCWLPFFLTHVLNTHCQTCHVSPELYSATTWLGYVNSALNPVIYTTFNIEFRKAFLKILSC
assay.text: PDSP primary binding D3
details: 1.5 h; primary binding, 10,000 nM; last figure of the line = mean of the 4 before it; read-out: D3, PDSP raw data, mean
value.kind: inhibition at 10 µM (%)
Please give a number only; it is taken to be in %.

Examples with their reported inhibition at 10 µM follow.
- C#Cc1ccc2c(c1)C(c1ccccc1F)=N[C@H](C)c1c(C(=S)N(C)C)ncn1-2: -3.57
- CCc1noc(-c2ncn3c2[C@@H](C)N=C(c2ccccc2F)c2cc(C4CC4)ccc2-3)n1: 27.8
- C#Cc1ccc2c(c1)C(c1ccccc1Cl)=N[C@H](C)c1c(C(=O)NC)ncn1-2: 6.19

Continue with the compound presented below.
input: Name the recorded inhibition at 10 µM for `CCc1noc(-c2ncn3c2CN=C(c2ccccc2F)c2cc(C4CC4)ccc2-3)n1` .
output: 16.1

###

tgt: A2A (Homo sapiens, UniProt P29274)
Construct: purchased NIMH Psychoactive Drug Screening Program (PDSP)
Sequence (P29274 whole entry): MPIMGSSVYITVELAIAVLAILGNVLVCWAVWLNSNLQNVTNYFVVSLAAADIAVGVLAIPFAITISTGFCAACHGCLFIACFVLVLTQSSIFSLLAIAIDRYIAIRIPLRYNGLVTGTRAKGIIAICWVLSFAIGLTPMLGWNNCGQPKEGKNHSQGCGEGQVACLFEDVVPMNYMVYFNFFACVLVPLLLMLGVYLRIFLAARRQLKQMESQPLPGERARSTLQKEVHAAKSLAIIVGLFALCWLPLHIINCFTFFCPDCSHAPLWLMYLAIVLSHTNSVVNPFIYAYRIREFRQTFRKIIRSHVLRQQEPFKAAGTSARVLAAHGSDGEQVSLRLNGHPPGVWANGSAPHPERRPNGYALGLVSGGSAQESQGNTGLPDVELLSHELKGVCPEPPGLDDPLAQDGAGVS
assay.text: PDSP primary binding A2A
details: primary binding, 10,000 nM; last figure of the line = mean of the 4 before it
Item-by-item account of A2A, PDSP raw data, mean
Please give a number only; it is taken to be in %.

Examples with their reported A2A, PDSP raw data, mean follow.
- C#Cc1ccc2c(c1)C(c1ccccn1)=N[C@@H](C)c1c(C(=O)NC)ncn1-2 [Compound 23]: -9.74
- C[C@H]1N=C(c2ccccc2F)c2cc(-c3ccccc3)ccc2-n2cnc(C(=O)N(C)C)c21 [Compound 5]: 11.57
- C#Cc1ccc2c(c1)C(c1ccccc1F)=N[C@H](C)c1c(C(=S)N(C)C)ncn1-2 [Compound 33]: 11.57
- C#Cc1ccc2c(c1)C(c1ccccn1)=N[C@@H](C)c1c(C(=O)N(C)C)ncn1-2 [Compound 31]: -10.83

input: Name the recorded A2A, PDSP raw data, mean for C#Cc1ccc2c(c1)C(c1ccccc1Cl)=N[C@H](C)c1c(C(=O)N(C)CC)ncn1-2 [Compound 29] .
output: -10.24

###

tgt: Alpha1A (Homo sapiens, UniProt P35348)
Construct: purchased NIMH Psychoactive Drug Screening Program (PDSP)
Sequence (P35348 whole entry): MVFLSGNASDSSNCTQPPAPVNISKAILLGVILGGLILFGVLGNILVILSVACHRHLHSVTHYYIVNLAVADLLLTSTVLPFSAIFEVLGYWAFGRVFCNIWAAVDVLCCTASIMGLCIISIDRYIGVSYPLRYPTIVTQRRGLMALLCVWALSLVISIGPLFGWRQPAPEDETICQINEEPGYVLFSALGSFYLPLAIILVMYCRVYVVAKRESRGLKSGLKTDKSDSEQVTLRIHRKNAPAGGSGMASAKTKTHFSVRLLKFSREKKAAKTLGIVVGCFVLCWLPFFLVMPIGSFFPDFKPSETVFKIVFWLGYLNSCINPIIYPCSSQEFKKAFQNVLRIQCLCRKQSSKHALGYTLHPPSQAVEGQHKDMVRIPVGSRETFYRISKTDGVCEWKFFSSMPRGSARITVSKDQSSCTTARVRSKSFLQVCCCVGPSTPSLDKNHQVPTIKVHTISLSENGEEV
assay.text: PDSP primary binding Alpha1A
details: 1.5 h; primary binding, 10,000 nM; last figure of the line = mean of the 4 before it; read-out: Alpha1A, PDSP raw data, mean
value.kind: inhibition at 10 µM (%)
Please give a number only; it is taken to be in %.

Examples with their reported inhibition at 10 µM follow.
* CCc1noc(-c2ncn3c2[C@@H](C)N=C(c2ccccc2F)c2cc(Cl)ccc2-3)n1 [Compound 36] | -0.34
* C#Cc1ccc2c(c1)C(c1ccccc1Cl)=N[C@H](C)c1c(C(=O)NC)ncn1-2 [Compound 21] | -5.44
* CC(C)c1noc(-c2ncn3c2[C@@H](C)N=C(c2ccccc2F)c2cc(Cl)ccc2-3)n1 [Compound 37] | -8.38
* CCc1noc(-c2ncn3c2[C@@H](C)N=C(c2ccccc2F)c2cc(-c4ccccc4)ccc2-3)n1 [Compound 35] | 20.8
* C#Cc1ccc2c(c1)C(c1ccccc1F)=N[C@H](C)c1c(C(=S)N(C)C)ncn1-2 [Compound 33] | -4.47

input: Record lookup: for Alpha1A (Homo sapiens, UniProt P35348), what inhibition at 10 µM belongs to CCc1noc(-c2ncn3c2[C@@H](C)N=C(c2ccccc2F)c2cc(C4CC4)ccc2-3)n1 [Compound 46] ?
output: 31.8

input: Record lookup: for Alpha1A (Homo sapiens, UniProt P35348), what inhibition at 10 µM belongs to CCc1noc(-c2ncn3c2CN=C(c2ccccc2F)c2cc(C4CC4)ccc2-3)n1 [Compound 44] ?
output: 21.4

input: Record lookup: for Alpha1A (Homo sapiens, UniProt P35348), what inhibition at 10 µM belongs to C#Cc1ccc2c(c1)C(c1ccccn1)=N[C@@H](C)c1c(C(=O)N(C)C)ncn1-2 [Compound 31] ?
output: -10.5

Origin of measurements: paper PMC10303271
